These measurements were taken from ChEMBL document CHEMBL1127014.

# ASSAYED TARGET: GABA-A receptor; anion channel
# TEST METHOD NOTES: Binding affinity for Diazepam-Insensitive fraction of GABA-A benzodiazepine receptors
# Assay type: protein-complex assay, Rattus norvegicus
pKi: −log10 of the molar value.
PARAMETER: pKi

compound=CN1Cc2c(C(=O)OC(C)(C)C)ncn2-c2ccc(Br)cc2C1=O parameter=pKi experimental_value=8.55
compound=CCCOC(=O)c1ncn2c1CN(C)C(=O)c1cc(Cl)ccc1-2 parameter=pKi experimental_value=7.48
compound=CN1Cc2c(C(=O)OC(C)(C)C)ncn2-c2ccc(N=C=S)cc2C1=O parameter=pKi experimental_value=8.57
compound=CN1Cc2c(C(=O)OC(C)(C)C)ncn2-c2ccc(I)cc2C1=O parameter=pKi experimental_value=8.82
compound=COC(=O)c1ncn2c1CN(C)C(=O)c1sccc1-2 parameter=pKi experimental_value=7.28
compound=COC(=O)c1ncn2c1CN(C)C(=O)c1cc(Cl)ccc1-2 parameter=pKi experimental_value=6.91
compound=CN1Cc2c(C(=O)OC(C)(C)C)ncn2-c2ccc([N+](=O)[O-])cc2C1=O parameter=pKi experimental_value=7.97
compound=CC(C)OC(=O)c1ncn2c1CN(C)C(=O)c1cc(Cl)ccc1-2 parameter=pKi experimental_value=8.06
compound=CN1Cc2c(C(=O)OC(C)(C)C)ncn2-c2ccc(Cl)cc2C1=O parameter=pKi experimental_value=8.77
compound=CN1Cc2c(C(=O)OCC3CC3)ncn2-c2ccc(Cl)cc2C1=O parameter=pKi experimental_value=7.40
compound="CN1Cc2c(C(=O)OC(C)(C)C)ncn2-c2ccsc2C1=O [RO-194603]" parameter=pKi experimental_value=8.59
compound=CCCOC(=O)c1ncn2c1CN(C)C(=O)c1sccc1-2 parameter=pKi experimental_value=7.42
compound=CN1Cc2c(C(=O)OC(C)(C)C)ncn2-c2ccccc2C1=O parameter=pKi experimental_value=7.67
compound=CN1Cc2c(C(=O)OCC(C)(C)C)ncn2-c2ccc(Cl)cc2C1=O parameter=pKi experimental_value=6.52
compound=CN1Cc2c(C(=O)OC(C)(C)C)ncn2-c2ccc(N=[N+]=[N-])cc2C1=O parameter=pKi experimental_value=9.37
compound=CCC(CC)OC(=O)c1ncn2c1CN(C)C(=O)c1cc(Cl)ccc1-2 parameter=pKi experimental_value=6.91
compound="CCOC(=O)c1ncn2c1C1CCCN1C(=O)c1cc(Cl)ccc1-2 (centres undefined) [RO-145975]" parameter=pKi experimental_value=7.28
compound=CCOC(=O)c1ncn2c1[C@@H]1CCCN1C(=O)c1ccccc1-2 parameter=pKi experimental_value=7.35
compound="CCOC(=O)c1ncn2c1CN(C)C(=O)c1ccccc1-2 [RO-147437]" parameter=pKi experimental_value=6.67
